# key: entry, value: pKd
# Tested System: T1, hPD-1 Avi-Tag Biotin (AcroBiosystems PD1-H82E4) (human, UniProt Q15116 25-167, biotin on Avi-Tag)
# T1 construct: bought; also called human PD-1
# T1 sequence (Q15116 25-167 limits assumed): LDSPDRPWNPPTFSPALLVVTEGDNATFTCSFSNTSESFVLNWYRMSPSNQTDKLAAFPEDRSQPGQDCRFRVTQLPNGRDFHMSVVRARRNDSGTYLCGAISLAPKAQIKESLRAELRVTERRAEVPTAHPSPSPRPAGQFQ
# Assay Comment: SPR, Ab captured, PD-1 analyte
# Experimental: Anti-human Fc IgG (Jackson) was immobilized on amine reactive CM5 chips (GE Healthcare) using 1×HBS-EP+ running buffer (GE Healthcare). The test antibodies were captured at flow rate 10 μl/min with 30 s contact time. […] Regeneration was carried out with 10 mM Glycine-HCl, pH 1.5 at flow rate 10 μL/min. […]
# log scale: pKd equals minus log10 of the concentration in mol/L

Examples with their reported pKd follow.
Binder	pKd
XVT458-z2-m1 (antibody, V domains shown, IgG format; also called z2-XVT458-m1; z2_XVT458m1) VH: QVQLVQSGAEVKKPGASVKVSCKASGYTFTNFYIHWVRQAPGQGLEWMGSIYPNYGFTAYNQKFKDRVTMTVDTSTSTAYMELRSLRSDDTAVYYCARGYSYAMDYWGQGTTVTVSS VL: DIQMTQSPSSVSASVGDRVTITCSASQGIWGDLNWYQQKPGKAPKLLIYHTSQLHSDVPSRFSGSGSGTDFTLTISSLQPEDFATYYCQGYSKDLLTFGGGTKLEIK	9.83
XVT458-z2-m6 (antibody, V domains shown, IgG format; also called z2_XVT458m6) VH: QVQLVQSGAEVKKPGASVKVSCKASGYTFTNFYIHWVRQAPGQGLEWMGSIYPNYGITAYNQKFKDRVTMTVDTSTSTAYMELRSLRSDDTAVYYCARGYSYAMDYWGQGTTVTVSS VL: DIQMTQSPSSVSASVGDRVTITCSASQGISGDLNWYQQKPGKAPKLLIYHTSQLHSDVPSRFSGSGSGTDFTLTISSLQPEDFATYYCQGYSKDLLTFGGGTKLEIK	9.36
XVT458-z2-m4 (antibody, V domains shown, IgG format; also called z2_XVT458m4) VH: QVQLVQSGAEVKKPGASVKVSCKASGYTFTNFYIHWVRQAPGQGLEWMGRIYPNYGITAYNQKFKDRVTMTVDTSTSTAYMELRSLRSDDTAVYYCARGYSYAMDYWGQGTTVTVSS VL: DIQMTQSPSSVSASVGDRVTITCSASQGISGDLNWYQQKPGKAPKLLIYHTSSRHSGVPSRFSGSGSGTDFTLTISSLQPEDFATYYCQGYSKDLLTFGGGTKLEIK	8.91
XVT458-z2-m3 (antibody, V domains shown, IgG format; also called z2_XVT458m3) VH: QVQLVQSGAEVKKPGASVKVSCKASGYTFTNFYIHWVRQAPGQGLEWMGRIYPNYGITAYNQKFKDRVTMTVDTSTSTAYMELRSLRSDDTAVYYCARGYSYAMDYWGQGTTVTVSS VL: DIQMTQSPSSVSASVGDRVTITCSASQGISGDLNWYQQKPGKAPKLLIYHTSQRHSDVPSRFSGSGSGTDFTLTISSLQPEDFATYYCQGYSKDLLTFGGGTKLEIK	9.38
XVT458-z2-m2 (antibody, V domains shown, IgG format; also called z2_XVT458m2) VH: QVQLVQSGAEVKKPGASVKVSCKASGYTFTNFYIHWVRQAPGQGLEWMGRIYPNYGFTAYNQKFKDRVTMTVDTSTSTAYMELRSLRSDDTAVYYCARGYSYAMDYWGQGTTVTVSS VL: DIQMTQSPSSVSASVGDRVTITCSASQGIYGDLNWYQQKPGKAPKLLIYHTSSLHSGVPSRFSGSGSGTDFTLTISSLQPEDFATYYCQAYSKDLLTFGGGTKLEIK	8.91

# input binder: XVT458-z2-m5 (antibody, V domains shown, IgG format; also called z2_XVT458m5) VH: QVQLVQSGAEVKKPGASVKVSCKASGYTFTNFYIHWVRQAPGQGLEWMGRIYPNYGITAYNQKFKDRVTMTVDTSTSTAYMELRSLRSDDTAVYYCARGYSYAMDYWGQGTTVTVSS VL: DIQMTQSPSSVSASVGDRVTITCSASQGIYGDLNWYQQKPGKAPKLLIYHTSSRHSGVPSRFSGSGSGTDFTLTISSLQPEDFATYYCQAYSKDLLTFGGGTKLEIK ; wanted: its pKd 9.10

Which pKd reading was recorded for the binder z2-XVT458 (antibody, IgG1, V domains shown, full hIgG1; also called XVT458-z2; GH + T071V) VH: QVQLVQSGAEVKKPGASVKVSCKASGYTFTNFYIHWVRQAPGQGLEWMGSIYPNYGDTAYNQKFKDRVTMTVDTSTSTAYMELRSLRSDDTAVYYCARGYSYAMDYWGQGTTVTVSS VL: DIQMTQSPSSVSASVGDRVTITCSASQGISGDLNWYQQKPGKAPKLLIYHTSSLHSGVPSRFSGSGSGTDFTLTISSLQPEDFATYYCQYYSKDLLTFGGGTKLEIK ? 7.90

// data source = patent US20260207767A1
